Data origin: paper PMC5529566

Target: H^+,K^+-ATPase (Sus scrofa, UniProt P19156)
Sequence (P19156 whole entry): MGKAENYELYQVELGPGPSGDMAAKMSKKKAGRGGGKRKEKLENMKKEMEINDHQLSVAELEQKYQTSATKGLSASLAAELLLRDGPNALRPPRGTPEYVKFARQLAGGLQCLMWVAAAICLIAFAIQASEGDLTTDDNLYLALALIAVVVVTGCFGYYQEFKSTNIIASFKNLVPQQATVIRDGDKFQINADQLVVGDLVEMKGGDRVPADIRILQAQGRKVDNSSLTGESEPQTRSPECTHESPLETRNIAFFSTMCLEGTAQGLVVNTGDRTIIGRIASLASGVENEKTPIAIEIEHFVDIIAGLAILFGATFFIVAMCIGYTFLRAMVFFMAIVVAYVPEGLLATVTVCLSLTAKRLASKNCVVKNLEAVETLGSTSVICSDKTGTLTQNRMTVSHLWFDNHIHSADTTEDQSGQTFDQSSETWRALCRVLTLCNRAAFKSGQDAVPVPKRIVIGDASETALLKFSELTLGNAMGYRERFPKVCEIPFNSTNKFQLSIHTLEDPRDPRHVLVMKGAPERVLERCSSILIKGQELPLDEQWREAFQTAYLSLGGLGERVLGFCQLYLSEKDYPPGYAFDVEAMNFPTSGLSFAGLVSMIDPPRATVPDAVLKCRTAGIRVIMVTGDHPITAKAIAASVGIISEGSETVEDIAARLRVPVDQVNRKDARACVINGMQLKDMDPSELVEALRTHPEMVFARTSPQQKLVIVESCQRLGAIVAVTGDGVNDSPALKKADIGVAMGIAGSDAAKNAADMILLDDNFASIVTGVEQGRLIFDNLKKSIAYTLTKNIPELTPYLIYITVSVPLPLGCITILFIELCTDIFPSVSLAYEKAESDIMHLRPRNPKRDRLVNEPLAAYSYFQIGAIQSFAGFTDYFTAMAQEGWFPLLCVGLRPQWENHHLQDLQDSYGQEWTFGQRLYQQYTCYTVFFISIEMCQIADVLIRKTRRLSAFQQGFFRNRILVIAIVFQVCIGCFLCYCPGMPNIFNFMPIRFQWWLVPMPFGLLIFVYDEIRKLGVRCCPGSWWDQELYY
Sequence (P18434 whole entry partner): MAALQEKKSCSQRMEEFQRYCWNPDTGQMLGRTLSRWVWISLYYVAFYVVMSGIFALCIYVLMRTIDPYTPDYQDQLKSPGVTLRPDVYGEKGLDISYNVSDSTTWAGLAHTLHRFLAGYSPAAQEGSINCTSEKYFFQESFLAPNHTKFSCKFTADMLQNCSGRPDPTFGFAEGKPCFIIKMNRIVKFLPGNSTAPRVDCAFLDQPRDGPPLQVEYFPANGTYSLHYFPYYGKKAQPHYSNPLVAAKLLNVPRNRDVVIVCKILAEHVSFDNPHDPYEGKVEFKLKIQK
Test: Dose-dependent inhibition of H^+,K^+-ATPase activity in the presence of 10 mM KCl
Entries and their measured IC50 follow.
Write down the numeric answer in µM and omit the unit.

Input: In one line, give reported IC50 of the entry Cc1nc2c3c(ccn2c1C)[C@@H](O)[C@H](O)[C@@H](c1ccccc1)N3 .
Output: 0.077

Next:
Input: In one line, give reported IC50 of the entry N#CCc1cnc2c(OCc3ccccc3)cccn12 .
Output: 54

Input: In one line, give reported IC50 of the entry Cc1nc2c3c(ccn2c1C)[C@@H](O)[C@H](O)[C@@H](c1ccccc1)N3C .
Output: 29

Input: In one line, give reported IC50 of the entry Cc1cn2cccc(OCc3ccccc3)c2n1 .
Output: 110

###

Entries and their measured Ki follow.
Target: H^+,K^+-ATPase Y799A (Sus scrofa, UniProt P19156, Y800A)
Assay: ATPase assay, Y799A mutant
Write down the numeric answer in µM and omit the unit.

Input: Recall the reported Ki of Cc1cn2cccc(OCc3ccccc3)c2n1 when tested on H^+,K^+-ATPase Y799A (Sus scrofa, UniProt P19156, Y800A).
Output: 81

// switching to the query compound
Input: Recall the reported Ki of N#CCc1cnc2c(OCc3ccccc3)cccn12 when tested on H^+,K^+-ATPase Y799A (Sus scrofa, UniProt P19156, Y800A).
Output: 740

###

Target: H^+,K^+-ATPase N138I (Sus scrofa, UniProt P19156, N139I)
Assay: ATPase assay, N138I mutant
Conditions: N138I
observedProperty: -fold increase in K i compared with wild-type
Write down the value, and be sure its unit follows.

Solved cases below.
Input: Recall the reported -fold increase in K i compared with wild-type of Cc1nc2c3c(ccn2c1C)[C@@H](O)[C@H](O)[C@@H](c1ccccc1)N3C when tested on H^+,K^+-ATPase N138I (Sus scrofa, UniProt P19156, N139I).
Output: 13 fold

Input: Recall the reported -fold increase in K i compared with wild-type of Cc1nc2c3c(ccn2c1C)[C@@H](O)[C@H](O)[C@@H](c1ccccc1)N3 when tested on H^+,K^+-ATPase N138I (Sus scrofa, UniProt P19156, N139I).
Output: 5.9 fold

Input: Recall the reported -fold increase in K i compared with wild-type of N#CCc1cnc2c(OCc3ccccc3)cccn12 when tested on H^+,K^+-ATPase N138I (Sus scrofa, UniProt P19156, N139I).
Output: 0.09 fold

Next:
Input: Recall the reported -fold increase in K i compared with wild-type of Cc1cn2cccc(OCc3ccccc3)c2n1 when tested on H^+,K^+-ATPase N138I (Sus scrofa, UniProt P19156, N139I).
Output: 1.2 fold

###

Target: H^+,K^+-ATPase L800F (Sus scrofa, UniProt P19156, L801F)
Experiment: ATPase assay, L800F mutant
observedProperty: Ki (nM)
Write down the numeric answer in nM and omit the unit.

Input: In one line, give reported Ki of the entry Cc1nc2c3c(ccn2c1C)[C@@H](O)[C@H](O)[C@@H](c1ccccc1)N3 [BYK99] .
Output: 59

###

Entries and their measured Ki follow.
Biological target: H^+,K^+-ATPase D137I (Sus scrofa, UniProt P19156, D138I)
Test: ATPase assay, D137I mutant
Write down the numeric answer in µM and omit the unit.

Input: In one line, give reported Ki of the entry Cc1nc2c3c(ccn2c1C)[C@@H](O)[C@H](O)[C@@H](c1ccccc1)N3C .
Output: 32

Input: In one line, give reported Ki of the entry N#CCc1cnc2c(OCc3ccccc3)cccn12 .
Output: 170

Input: In one line, give reported Ki of the entry Cc1nc2c3c(ccn2c1C)[C@@H](O)[C@H](O)[C@@H](c1ccccc1)N3 .
Output: 0.062

// switching to the query molecule
Input: In one line, give reported Ki of the entry Cc1cn2cccc(OCc3ccccc3)c2n1 .
Output: 39

###

Entries and their measured -fold increase in K i compared with wild-type follow.
Target: H^+,K^+-ATPase D136A (Sus scrofa, UniProt P19156, D137A)
Experiment: ATPase assay, D136A mutant
Settings: D136A
Write down the numeric answer in fold and omit the unit.

Solved cases below.
Input: Recall the reported -fold increase in K i compared with wild-type of Cc1nc2c3c(ccn2c1C)[C@@H](O)[C@H](O)[C@@H](c1ccccc1)N3 [BYK99] when tested on H^+,K^+-ATPase D136A (Sus scrofa, UniProt P19156, D137A).
Output: 1.7

Input: Recall the reported -fold increase in K i compared with wild-type of Cc1nc2c3c(ccn2c1C)[C@@H](O)[C@H](O)[C@@H](c1ccccc1)N3C [BYK73] when tested on H^+,K^+-ATPase D136A (Sus scrofa, UniProt P19156, D137A).
Output: 1.8

Input: Recall the reported -fold increase in K i compared with wild-type of Cc1cn2cccc(OCc3ccccc3)c2n1 [SCH-CN^−] when tested on H^+,K^+-ATPase D136A (Sus scrofa, UniProt P19156, D137A).
Output: 1.6

Next:
Input: Recall the reported -fold increase in K i compared with wild-type of N#CCc1cnc2c(OCc3ccccc3)cccn12 [SCH-Me^−] when tested on H^+,K^+-ATPase D136A (Sus scrofa, UniProt P19156, D137A).
Output: 1.0

###

Entries and their measured pKi follow.
Biological target: H^+,K^+-ATPase Y140F (Sus scrofa, UniProt P19156, Y141F)
Sequence (P19156 whole entry Y141F): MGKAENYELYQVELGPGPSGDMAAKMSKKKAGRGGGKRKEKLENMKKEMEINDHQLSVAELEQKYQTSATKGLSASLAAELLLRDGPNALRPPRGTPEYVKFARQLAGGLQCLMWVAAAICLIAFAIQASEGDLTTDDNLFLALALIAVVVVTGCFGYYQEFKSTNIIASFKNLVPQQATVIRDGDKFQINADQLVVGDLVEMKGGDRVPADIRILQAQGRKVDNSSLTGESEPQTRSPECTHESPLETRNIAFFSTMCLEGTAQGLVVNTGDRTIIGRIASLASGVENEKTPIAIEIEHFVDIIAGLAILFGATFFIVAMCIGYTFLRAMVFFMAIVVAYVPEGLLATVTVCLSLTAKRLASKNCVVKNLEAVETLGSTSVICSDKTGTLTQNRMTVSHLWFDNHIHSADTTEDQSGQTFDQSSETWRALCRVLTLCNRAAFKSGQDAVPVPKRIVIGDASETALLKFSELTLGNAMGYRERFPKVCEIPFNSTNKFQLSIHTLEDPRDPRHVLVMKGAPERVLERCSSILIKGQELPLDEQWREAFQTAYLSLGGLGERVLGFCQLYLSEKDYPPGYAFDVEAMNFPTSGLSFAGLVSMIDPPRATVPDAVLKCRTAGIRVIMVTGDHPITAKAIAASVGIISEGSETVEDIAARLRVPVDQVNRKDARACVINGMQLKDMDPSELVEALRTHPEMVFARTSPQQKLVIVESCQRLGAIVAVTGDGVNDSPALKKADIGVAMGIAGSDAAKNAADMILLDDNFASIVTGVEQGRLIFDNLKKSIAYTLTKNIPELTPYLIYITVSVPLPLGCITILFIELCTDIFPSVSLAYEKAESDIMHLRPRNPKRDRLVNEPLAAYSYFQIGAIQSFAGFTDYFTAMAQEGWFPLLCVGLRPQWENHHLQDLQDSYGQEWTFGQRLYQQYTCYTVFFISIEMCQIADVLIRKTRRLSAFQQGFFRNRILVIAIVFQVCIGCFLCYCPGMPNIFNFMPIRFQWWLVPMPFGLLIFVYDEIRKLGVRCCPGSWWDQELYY
Sequence (P18434 whole entry partner): as the sequence (P18434 whole entry partner) above
Assay: ATPase assay, Y140F mutant
pKi is defined as minus the log10 of a concentration measured in mol/L.

Solved cases below.
Input: In one line, give reported pKi of the entry Cc1cn2cccc(OCc3ccccc3)c2n1 .
Output: 5.43

Input: In one line, give reported pKi of the entry Cc1nc2c3c(ccn2c1C)[C@@H](O)[C@H](O)[C@@H](c1ccccc1)N3 .
Output: 7.46

Input: In one line, give reported pKi of the entry N#CCc1cnc2c(OCc3ccccc3)cccn12 .
Output: 4.68

// switching to the query compound
Input: In one line, give reported pKi of the entry Cc1nc2c3c(ccn2c1C)[C@@H](O)[C@H](O)[C@@H](c1ccccc1)N3C .
Output: 5.12

###

Entries and their measured Ki follow.
Target: H^+,K^+-ATPase D136I (Sus scrofa, UniProt P19156, D137I)
Sequence (P19156 whole entry D137I): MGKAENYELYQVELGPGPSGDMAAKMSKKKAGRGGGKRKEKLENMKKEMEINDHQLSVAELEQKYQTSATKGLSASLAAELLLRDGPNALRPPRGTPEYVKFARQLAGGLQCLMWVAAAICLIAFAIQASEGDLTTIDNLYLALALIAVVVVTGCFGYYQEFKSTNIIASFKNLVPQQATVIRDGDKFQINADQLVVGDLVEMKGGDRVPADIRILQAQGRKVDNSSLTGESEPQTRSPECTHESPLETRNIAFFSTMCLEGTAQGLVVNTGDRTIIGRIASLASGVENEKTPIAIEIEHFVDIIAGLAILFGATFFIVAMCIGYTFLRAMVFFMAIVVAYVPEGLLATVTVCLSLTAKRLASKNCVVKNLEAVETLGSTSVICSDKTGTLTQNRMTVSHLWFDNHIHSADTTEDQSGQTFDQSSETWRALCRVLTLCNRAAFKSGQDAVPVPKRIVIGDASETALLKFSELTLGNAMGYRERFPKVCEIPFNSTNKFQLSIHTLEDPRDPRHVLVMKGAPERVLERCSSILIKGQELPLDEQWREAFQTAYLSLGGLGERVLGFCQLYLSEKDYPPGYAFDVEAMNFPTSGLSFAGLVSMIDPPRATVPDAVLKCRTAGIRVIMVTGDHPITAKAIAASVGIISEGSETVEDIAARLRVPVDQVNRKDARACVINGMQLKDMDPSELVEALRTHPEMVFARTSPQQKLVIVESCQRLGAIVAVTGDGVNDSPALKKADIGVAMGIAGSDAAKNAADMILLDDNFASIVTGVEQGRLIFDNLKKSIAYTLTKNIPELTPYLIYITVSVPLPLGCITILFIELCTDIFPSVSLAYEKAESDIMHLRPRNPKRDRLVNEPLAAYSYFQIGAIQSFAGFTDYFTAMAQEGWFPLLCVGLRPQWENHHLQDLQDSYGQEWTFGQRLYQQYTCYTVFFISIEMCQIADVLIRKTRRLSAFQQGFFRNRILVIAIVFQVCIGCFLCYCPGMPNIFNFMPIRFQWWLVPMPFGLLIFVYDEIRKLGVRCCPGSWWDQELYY
Sequence (P18434 whole entry partner): as the sequence (P18434 whole entry partner) above
Experiment: ATPase assay, D136I mutant

Solved cases below.
Input: In one line, give reported Ki of the entry Cc1nc2c3c(ccn2c1C)[C@@H](O)[C@H](O)[C@@H](c1ccccc1)N3C .
Output: 6.7 µM

Input: In one line, give reported Ki of the entry N#CCc1cnc2c(OCc3ccccc3)cccn12 .
Output: 6.8 µM

Input: In one line, give reported Ki of the entry Cc1nc2c3c(ccn2c1C)[C@@H](O)[C@H](O)[C@@H](c1ccccc1)N3 .
Output: 0.015 µM

// switching to the query compound
Input: In one line, give reported Ki of the entry Cc1cn2cccc(OCc3ccccc3)c2n1 .
Output: 4.1 µM

###

Target: H^+,K^+-ATPase V331F (Sus scrofa, UniProt P19156, V332F)
Test: ATPase assay, V331F mutant
observedProperty: pKi
pKi is defined as minus the log10 of a concentration measured in mol/L.

Input: In one line, give reported pKi of the entry Cc1nc2c3c(ccn2c1C)[C@@H](O)[C@H](O)[C@@H](c1ccccc1)N3 [BYK99] .
Output: 7.82

###

Entries and their measured pKi follow.
Target: H^+,K^+-ATPase N138A (Sus scrofa, UniProt P19156, N139A)
Sequence (P19156 whole entry N139A): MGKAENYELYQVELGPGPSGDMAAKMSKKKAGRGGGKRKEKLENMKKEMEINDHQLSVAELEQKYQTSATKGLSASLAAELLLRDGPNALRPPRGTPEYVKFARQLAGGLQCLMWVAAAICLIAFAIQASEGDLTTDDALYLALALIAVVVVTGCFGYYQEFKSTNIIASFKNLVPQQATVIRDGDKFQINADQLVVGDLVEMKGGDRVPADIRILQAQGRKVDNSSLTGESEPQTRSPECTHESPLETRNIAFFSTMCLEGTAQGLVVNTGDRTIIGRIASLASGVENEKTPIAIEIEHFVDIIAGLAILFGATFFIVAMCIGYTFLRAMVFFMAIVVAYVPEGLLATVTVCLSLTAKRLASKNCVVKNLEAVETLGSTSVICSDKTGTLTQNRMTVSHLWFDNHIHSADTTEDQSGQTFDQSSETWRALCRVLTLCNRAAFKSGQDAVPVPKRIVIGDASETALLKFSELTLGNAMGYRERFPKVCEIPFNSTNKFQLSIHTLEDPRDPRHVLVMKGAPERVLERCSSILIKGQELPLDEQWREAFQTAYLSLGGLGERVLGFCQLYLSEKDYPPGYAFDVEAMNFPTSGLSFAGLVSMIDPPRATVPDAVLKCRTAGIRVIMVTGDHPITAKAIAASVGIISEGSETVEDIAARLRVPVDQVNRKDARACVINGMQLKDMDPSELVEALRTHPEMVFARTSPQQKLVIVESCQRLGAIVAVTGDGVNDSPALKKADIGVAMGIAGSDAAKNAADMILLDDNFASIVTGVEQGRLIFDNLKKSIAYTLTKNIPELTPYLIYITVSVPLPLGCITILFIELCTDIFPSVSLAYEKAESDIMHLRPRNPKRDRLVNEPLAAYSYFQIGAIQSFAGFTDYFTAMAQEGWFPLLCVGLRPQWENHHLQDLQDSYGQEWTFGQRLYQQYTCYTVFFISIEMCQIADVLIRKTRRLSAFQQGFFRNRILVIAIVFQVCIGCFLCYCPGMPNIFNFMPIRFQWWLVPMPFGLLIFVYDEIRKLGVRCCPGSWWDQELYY
Sequence (P18434 whole entry partner): as the sequence (P18434 whole entry partner) above
Test: ATPase assay, N138A mutant
pKi is defined as minus the log10 of a concentration measured in mol/L.

Solved cases below.
Input: In one line, give reported pKi of the entry Cc1nc2c3c(ccn2c1C)[C@@H](O)[C@H](O)[C@@H](c1ccccc1)N3 .
Output: 8.85

Input: In one line, give reported pKi of the entry Cc1nc2c3c(ccn2c1C)[C@@H](O)[C@H](O)[C@@H](c1ccccc1)N3C .
Output: 5.18

Next:
Input: In one line, give reported pKi of the entry Cc1cn2cccc(OCc3ccccc3)c2n1 .
Output: 5.38

Input: In one line, give reported pKi of the entry N#CCc1cnc2c(OCc3ccccc3)cccn12 .
Output: 6.25

###

Biological target: H^+,K^+-ATPase N138D (Sus scrofa, UniProt P19156, N139D)
Assay: ATPase assay, N138D mutant
observedProperty: Ki (nM)
Write down the numeric answer in nM and omit the unit.

Input: In one line, give reported Ki of the entry Cc1nc2c3c(ccn2c1C)[C@@H](O)[C@H](O)[C@@H](c1ccccc1)N3 .
Output: 7.7

Next:
Input: In one line, give reported Ki of the entry Cc1cn2cccc(OCc3ccccc3)c2n1 .
Output: 2600
